Test: AUC in human at 2 g, po QD after 24 hrs
Assay type: ADME, organism-based
Set-up: dose 2 g, time < 24 hr, route oral
Details: in vivo
parameter_measured: AUC at 24 h (µM·h)

> print(dat)
                                   molecule  value
1  CCOC(=O)C(C)(C)Oc1ccc(Cl)cc1 [CLOFIBRATE]    649

---

Test: Drug concentration at steady state in human at 3 mg, po QD after 24 hrs
Format: ADME, organism-based
Details: in vivo, read-out: Css
parameter_measured: concentration at 24 h

> print(dat)
                                smiles.data     value
1  C[C@]12CCC(=O)C=C1[C@@H]1C[C@@H]1[C@H]1[C@@H]3[C@@H]4C[C@@H]4[C@@]4(CCC(=O)O4)[C@@]3(C)CC[C@@H]12  0.091 µM

---

Experiment: Drug concentration at steady state in human at 0.1 to 1 mg, po QD after 24 hrs
Assay type: ADME, organism-based
Conditions: in vivo, read-out: Css
parameter_measured: concentration at 24 h (nM)

> print(dat)
                                smiles.data  value
1  COC(=O)[C@H]1[C@H]2C[C@@H]3c4[nH]c5cc(OC)ccc5c4CCN3C[C@H]2C[C@@H](OC(=O)c2cc(OC)c(OC)c(OC)c2)[C@@H]1OC      1

---

Catalogue of pIC50 values
Biological target: Bile salt export pump (Homo sapiens, UniProt O95342)
Sequence (O95342 whole entry): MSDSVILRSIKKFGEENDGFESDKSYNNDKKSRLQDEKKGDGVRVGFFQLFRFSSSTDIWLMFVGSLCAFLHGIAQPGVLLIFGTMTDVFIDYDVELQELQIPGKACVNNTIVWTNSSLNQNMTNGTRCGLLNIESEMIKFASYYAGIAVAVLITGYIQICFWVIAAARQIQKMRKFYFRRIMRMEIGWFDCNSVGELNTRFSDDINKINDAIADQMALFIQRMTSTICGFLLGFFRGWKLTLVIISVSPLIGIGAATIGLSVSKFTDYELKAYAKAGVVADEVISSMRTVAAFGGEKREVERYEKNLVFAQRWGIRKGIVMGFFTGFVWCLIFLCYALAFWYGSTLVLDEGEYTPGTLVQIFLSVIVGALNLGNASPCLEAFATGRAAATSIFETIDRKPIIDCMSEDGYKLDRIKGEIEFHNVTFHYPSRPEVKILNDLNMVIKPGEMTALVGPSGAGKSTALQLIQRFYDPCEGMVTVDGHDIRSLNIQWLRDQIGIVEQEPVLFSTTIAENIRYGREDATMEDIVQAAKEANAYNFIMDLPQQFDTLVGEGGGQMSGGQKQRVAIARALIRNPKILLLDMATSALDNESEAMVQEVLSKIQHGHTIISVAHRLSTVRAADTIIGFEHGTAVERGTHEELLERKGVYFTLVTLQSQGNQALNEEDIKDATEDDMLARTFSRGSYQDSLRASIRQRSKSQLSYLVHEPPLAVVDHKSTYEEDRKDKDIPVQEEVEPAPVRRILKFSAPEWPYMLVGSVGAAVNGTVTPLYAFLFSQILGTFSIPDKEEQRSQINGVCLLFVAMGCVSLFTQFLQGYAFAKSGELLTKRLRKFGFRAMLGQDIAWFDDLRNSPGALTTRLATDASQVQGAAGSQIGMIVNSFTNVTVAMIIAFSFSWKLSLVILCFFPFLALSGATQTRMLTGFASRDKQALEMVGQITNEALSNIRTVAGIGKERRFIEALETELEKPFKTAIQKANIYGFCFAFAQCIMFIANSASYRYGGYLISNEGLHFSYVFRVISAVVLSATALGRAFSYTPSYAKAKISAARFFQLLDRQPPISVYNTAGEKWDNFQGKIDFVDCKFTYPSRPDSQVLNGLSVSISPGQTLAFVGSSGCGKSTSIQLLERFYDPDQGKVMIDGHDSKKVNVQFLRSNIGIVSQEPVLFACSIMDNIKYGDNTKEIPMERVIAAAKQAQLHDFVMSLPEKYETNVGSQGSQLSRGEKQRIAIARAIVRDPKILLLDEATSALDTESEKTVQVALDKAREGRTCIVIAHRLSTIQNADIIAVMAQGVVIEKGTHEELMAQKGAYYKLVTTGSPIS
Assay: Inhibition of human BSEP overexpressed in Sf9 cell membrane vesicles assessed as uptake of [3H]-taurocholate in presence of ATP measured after 15 to 20 mins by membrane vesicle transport assay
pIC50: −log10 of the molar value.

compound	pIC50
CO[C@H]1/C=C/O[C@@]2(C)Oc3c(C)c(O)c4c(O)c(c(/C=N/N5CCN(C6CCCC6)CC5)c(O)c4c3C2=O)NC(=O)/C(C)=C\C=C\[C@H](C)[C@H](O)[C@@H](C)[C@@H](O)[C@@H](C)[C@H](OC(C)=O)[C@@H]1C [RIFAPENTINE]	5.00
CC[C@@H](C(N)=O)N1CCCC1=O	< 3.88
CC[C@H]1OC(=O)[C@H](C)[C@@H](O[C@H]2C[C@@](C)(OC)[C@@H](O)[C@H](C)O2)[C@H](C)[C@@H](O[C@@H]2O[C@H](C)C[C@H](N(C)C)[C@H]2O)[C@](C)(OC)C[C@@H](C)C(=O)[C@H](C)[C@@H](O)[C@]1(C)O [CLARITHROMYCIN]	< 3.88
CC(=O)O[C@@]12CO[C@@H]1C[C@H](O)[C@@]1(C)C(=O)[C@H](O)C3=C(C)[C@@H](OC(=O)[C@H](O)[C@@H](NC(=O)OC(C)(C)C)c4ccccc4)C[C@@](O)([C@@H](OC(=O)c4ccccc4)[C@H]21)C3(C)C [DOCETAXEL ANHYDROUS]	4.39
O=C(NCCN1CCOCC1)c1ccc(Cl)cc1 [MOCLOBEMIDE]	< 3.88
CC(O)(P(=O)(O)O)P(=O)(O)O [ETIDRONATE DISODIUM]	< 3.88
Cc1onc(-c2c(Cl)cccc2Cl)c1C(=O)N[C@@H]1C(=O)N2[C@@H]1SC(C)(C)[C@@H]2C(=O)O [DICLOXACILLIN]	4.25
C[C@H]1C[C@H]2[C@@H]3CCC4=CC(=O)C=C[C@]4(C)[C@@]3(F)[C@@H](O)C[C@]2(C)[C@@]1(O)C(=O)CO [BETAMETHASONE]	< 3.88
CCOC(=O)C1=C(COCCN)NC(C)=C(C(=O)OC)C1c1ccccc1Cl (stereo not drawn) [AMLODIPINE]	< 3.88
CCC[C@H](N[C@@H](C)C(=O)N1[C@H](C(=O)O)C[C@@H]2CCCC[C@@H]21)C(=O)OCC [PERINDOPRIL ERBUMINE]	< 3.88
C=CC[C@@H]1/C=C(\C)C[C@H](C)C[C@H](OC)[C@H]2O[C@@](O)(C(=O)C(=O)N3CCCC[C@H]3C(=O)O[C@H](/C(C)=C/[C@@H]3CC[C@@H](O)[C@H](OC)C3)[C@H](C)[C@@H](O)CC1=O)[C@H](C)C[C@@H]2OC [TACROLIMUS ANHYDROUS]	5.14
COc1cccc2c1C(=O)c1c(O)c3c(c(O)c1C2=O)C[C@@](O)(C(=O)CO)C[C@@H]3O[C@H]1C[C@H](N)[C@H](O)[C@H](C)O1 [DOXORUBICIN]	< 3.88
COc1ccc2[nH]c([S+]([O-])Cc3ncc(C)c(OC)c3C)nc2c1 (stereo not drawn) [OMEPRAZOLE]	4.00

---

Experiment: Drug concentration at steady state in human at 40 to 80 mg, po TID after 8 hrs
Format: ADME, organism-based
Conditions: in vivo, read-out: Css
parameter_measured: concentration at 8 h (nM)

> print(dat)
                                smiles.data    parameter.measured  value
1  CCOc1ccc(/C=C2\NCCc3cc(OCC)c(OCC)cc32)cc1OCC  concentration at 8 h   1020

---

Catalogue of pIC50 values
Target: Bile salt export pump (Homo sapiens, UniProt O95342)
Assay: Inhibition of human BSEP overexpressed in Sf9 cell membrane vesicles assessed as uptake of [3H]-taurocholate in presence of ATP measured after 15 to 20 mins by membrane vesicle transport assay
pIC50: −log10 of the molar value. Where a name gives a salt, the structure may show the parent alone.

compound	pIC50
COCCCOc1cc(C[C@@H](C[C@H](N)[C@@H](O)C[C@H](C(=O)NCC(C)(C)C(N)=O)C(C)C)C(C)C)ccc1OC [ALISKIREN FUMARATE]	< 3.88
CC[C@H]1OC(=O)[C@H](C)[C@@H](O[C@H]2C[C@@](C)(OC)[C@@H](O)[C@H](C)O2)[C@H](C)[C@@H](O[C@@H]2O[C@H](C)C[C@H](N(C)C)[C@H]2O)[C@](C)(O)C[C@@H](C)/C(=N\OCOCCOC)[C@H](C)[C@@H](O)[C@]1(C)O [ROXITHROMYCIN]	< 3.88
CC(SC(=O)c1cccs1)C(=O)NCC(=O)O (centres undefined) [STEPRONIN]	< 3.88
CCCCC(=O)N(Cc1ccc(-c2ccccc2-c2nnn[nH]2)cc1)[C@H](C(=O)O)C(C)C	< 3.88

---

Assay: Drug concentration at steady state in human at 50 ug, sc BID/TID co-treated with 50 to 500 ug, sc TID of sandostatin LAR measured after 8 hrs
Type: ADME, organism-based
Details: in vivo, read-out: Css

compound	unit_of_measurement	concentration at 8 h
CC(=O)O.C[C@@H](O)[C@@H]1NC(=O)[C@H](CCCCN)NC(=O)[C@@H](Cc2c[nH]c3ccccc23)NC(=O)[C@H](Cc2ccccc2)NC(=O)[C@@H](NC(=O)[C@H](N)Cc2ccccc2)CSSC[C@@H](C(=O)N[C@H](CO)[C@@H](C)O)NC1=O [OCTREOTIDE ACETATE]	µM	5.28

---

Test: Drug concentration at steady state in human at 0.5 to 2 mg/kg, po QD after 24 hrs
Format: ADME, organism-based
Conditions: in vivo, read-out: Css
parameter_measured: concentration at 24 h (nM)

> print(dat)
                                smiles.data     parameter.measured  unit.of.measurement  value
1  CC1=C(/C=C/C(C)=C/C=C/C(C)=C\C(=O)O)C(C)(C)CCC1  concentration at 24 h                   nM   1390

---

Experiment: Drug concentration at steady state in human at 20 to 25 mg/kg, po TID after 8 hrs
Type: ADME, organism-based
Conditions: in vivo, read-out: Css
parameter_measured: concentration at 8 h (µM)

> print(dat)
                                   compound    parameter.measured  value
1  O=C(C1CCCCC1)N1CC(=O)N2CCc3ccccc3C2C1 (stereo unspecified)  concentration at 8 h    6.3

---

Test: Drug concentration at steady state in human at 50 to 100 mg, po QD after 24 hrs
Assay type: ADME, organism-based
Settings: in vivo, read-out: Css
parameter_measured: concentration at 24 h (nM)

> print(dat)
                                smiles.data  value
1  CCCCc1nc(Cl)c(CO)n1Cc1ccc(-c2ccccc2-c2nnn[n-]2)cc1.[K+]    101

---

Target: ATP-binding cassette sub-family C member 4 (Homo sapiens, UniProt O15439)
Sequence (O15439 whole entry): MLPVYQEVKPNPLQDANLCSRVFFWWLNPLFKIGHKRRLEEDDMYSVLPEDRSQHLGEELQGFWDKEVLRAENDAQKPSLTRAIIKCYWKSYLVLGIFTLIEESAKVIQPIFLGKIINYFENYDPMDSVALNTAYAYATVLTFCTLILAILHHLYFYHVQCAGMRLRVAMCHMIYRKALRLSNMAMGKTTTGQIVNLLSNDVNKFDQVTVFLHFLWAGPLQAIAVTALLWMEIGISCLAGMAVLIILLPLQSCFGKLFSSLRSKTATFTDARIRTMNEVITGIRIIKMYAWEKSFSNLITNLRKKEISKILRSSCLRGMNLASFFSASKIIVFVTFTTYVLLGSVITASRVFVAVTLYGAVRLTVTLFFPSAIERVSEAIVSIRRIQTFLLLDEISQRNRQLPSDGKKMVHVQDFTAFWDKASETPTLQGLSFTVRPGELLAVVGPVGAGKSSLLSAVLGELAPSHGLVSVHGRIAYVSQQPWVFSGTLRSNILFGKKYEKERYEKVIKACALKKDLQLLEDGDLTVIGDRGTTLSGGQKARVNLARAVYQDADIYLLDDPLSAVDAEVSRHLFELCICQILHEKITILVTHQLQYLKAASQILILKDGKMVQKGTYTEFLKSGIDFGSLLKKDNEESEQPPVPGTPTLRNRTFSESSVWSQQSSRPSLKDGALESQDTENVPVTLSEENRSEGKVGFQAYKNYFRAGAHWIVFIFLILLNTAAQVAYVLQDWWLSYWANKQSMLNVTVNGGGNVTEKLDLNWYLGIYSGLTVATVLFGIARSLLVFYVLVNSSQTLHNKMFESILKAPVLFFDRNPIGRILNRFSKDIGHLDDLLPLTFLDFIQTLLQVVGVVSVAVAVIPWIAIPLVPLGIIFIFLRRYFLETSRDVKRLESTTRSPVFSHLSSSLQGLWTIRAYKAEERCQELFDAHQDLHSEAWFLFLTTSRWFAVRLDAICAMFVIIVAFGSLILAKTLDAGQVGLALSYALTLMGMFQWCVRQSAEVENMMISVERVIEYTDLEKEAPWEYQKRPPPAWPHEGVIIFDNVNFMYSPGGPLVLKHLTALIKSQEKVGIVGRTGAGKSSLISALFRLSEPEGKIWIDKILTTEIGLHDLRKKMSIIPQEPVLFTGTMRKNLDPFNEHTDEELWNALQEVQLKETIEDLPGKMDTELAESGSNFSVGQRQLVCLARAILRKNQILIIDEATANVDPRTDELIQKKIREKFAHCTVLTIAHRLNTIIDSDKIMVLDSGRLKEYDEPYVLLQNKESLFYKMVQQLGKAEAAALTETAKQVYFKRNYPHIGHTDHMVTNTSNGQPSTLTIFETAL
Assay: Inhibition of human MRP4 overexpressed in Sf9 cell membrane vesicles assessed as uptake of [3H]-estradiol-17beta-D-glucuronide in presence of ATP and GSH measured after 20 mins by membrane vesicle transport assay
parameter_measured: IC50

> print(dat)
                                   compound                              study.target     value
1  CCN[C@H]1CN(CCCOC)S(=O)(=O)c2sc(S(N)(=O)=O)cc21 [BRINZOLAMIDE]  ATP-binding cassette sub-family C member 4 (Homo sapiens, UniProt O15439)  > 133 µM
2  CCC1=C(C)CN(C(=O)NCCc2ccc(S(=O)(=O)NC(=O)N[C@H]3CC[C@H](C)CC3)cc2)C1=O [GLIMEPIRIDE]  ATP-binding cassette sub-family C member 4 (Homo sapiens, UniProt O15439)     64 µM
3                  Cc1cnc(C(=O)O)c[n+]1[O-]  ATP-binding cassette sub-family C member 4 (Homo sapiens, UniProt O15439)  > 133 µM
4  CC[C@@]1(O)C(=O)OCc2c1cc1n(c2=O)Cc2cc3c([N+](=O)[O-])cccc3nc2-1  ATP-binding cassette sub-family C member 4 (Homo sapiens, UniProt O15439)    5.1 µM
5  CC1Cc2ccccc2N1NC(=O)c1ccc(Cl)c(S(N)(=O)=O)c1 (centres undefined) [INDAPAMIDE]  ATP-binding cassette sub-family C member 4 (Homo sapiens, UniProt O15439)  > 133 µM
6  O=C1CCc2ccc(OCCCCN3CCN(c4cccc(Cl)c4Cl)CC3)cc2N1  ATP-binding cassette sub-family C member 4 (Homo sapiens, UniProt O15439)  > 133 µM
7     Nc1ccn(C[C@@H](CO)OCP(=O)(O)O)c(=O)n1  ATP-binding cassette sub-family C member 4 (Homo sapiens, UniProt O15439)  > 133 µM
8       Nc1c(CC(=O)O)cccc1C(=O)c1ccc(Br)cc1  ATP-binding cassette sub-family C member 4 (Homo sapiens, UniProt O15439)  > 133 µM
9  CCCCc1nc(Cl)c(CO)n1Cc1ccc(-c2ccccc2-c2nnn[n-]2)cc1.[K+]  ATP-binding cassette sub-family C member 4 (Homo sapiens, UniProt O15439)   34.1 µM

Ref: ChEMBL document CHEMBL4028801
